Assay Details: inhibitors of TNFa-induced NFkB p65 translocation, primary screen, imaging, HUVEC, MLSMR starter and 10KST1 sets (AID 438);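 also: compound added about 3h40 before a 20 min TNFalpha stimulation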
Experimental Parameters: HUVEC TNFa-induced p65 nuclear translocation; measured here: nuclei count (cytotoxicity indicator), at 2.08 µM
# label = Met if cell count >= 500 else Not met

Q. Say whether `C/C=C/Cn1c(Br)nc2c1c(=O)[nH]c(=O)n2C` shows cell count of 500 or more.
A. Met

Q. Say whether `O=C(NCc1ccccn1)c1coc(=O)c(Br)c1` shows cell count of 500 or more.
A. Met

Q. Say whether `CCN(CC)CCN1C(=O)Cn2c(C)c(C)c3cccc1c32` shows cell count of 500 or more.
A. Not met

Q. Say whether `CCOc1ccc(C(=O)N2CCN(c3ccccc3)CC2)cc1OCC` shows cell count of 500 or more.
A. Not met

Q. Say whether CC(C)(C)OC(=O)N1CC=C2C(C#N)=C(N)C(C#N)(C#N)C(c3cccs3)C2C1 (stereo not drawn) shows cell count of 500 or more.
A. Met

Q. Say whether `CCOC(=O)CNC(=O)CSc1nc(N)cc(N)n1` shows cell count of 500 or more.
A. Not met

Q. Say whether `CC(=O)C1=C(C)NC(C)=C(C(C)=O)C1c1cccs1` shows cell count of 500 or more.
A. Not met

Q. Say whether `CCCCc1nc(N2CCOCC2)c(C#N)c2c1COC(C)(C)C2` shows cell count of 500 or more.
A. Met

Q. Say whether `O=c1c2cc(N3CCOCC3)ccc2[nH]c(=S)n1CCCN1CCCC1` shows cell count of 500 or more.
A. Met

Q. Say whether CCn1c(SCC(=O)NC2CCCCC2C)nnc1-c1ccc(OC)cc1 (stereo not drawn) shows cell count of 500 or more.
A. Not met

Q. Say whether `CC(=O)NCC(=O)OCN1C(=O)c2ccccc2C1=O` shows cell count of 500 or more.
A. Met

Q. Say whether CCC(Sc1nc(-c2ccccc2)c(C#N)c(=O)[nH]1)C(=O)Nc1cc(C)on1 (stereo not drawn) shows cell count of 500 or more.
A. Not met

Q. Say whether `CC(C)(C)NC(=O)Cn1c(=O)oc2ccc(Cl)cc21` shows cell count of 500 or more.
A. Met

Q. Say whether CCOc1ccc(NC(=O)c2ccc3c(c2)N(Cc2ccc(F)cc2)C(=O)CS3=O)cc1 (stereo not drawn) shows cell count of 500 or more.
A. Met

Q. Say whether `Cc1cccc(-n2ncc3c(NCc4ccco4)ncnc32)c1` shows cell count of 500 or more.
A. Met

Q. Say whether `CCCOc1ccccc1C(=O)NCCCC(=O)O` shows cell count of 500 or more.
A. Met

Q. Say whether `O=C(NCCc1c[nH]c2ccccc12)c1cnc2n(c1=O)CCS2` shows cell count of 500 or more.
A. Met

Q. Say whether `CCOC(=O)N1CCC(NC(=O)CS(=O)(=O)Cc2nc(-c3ccccc3C)oc2C)CC1` shows cell count of 500 or more.
A. Met

Q. Say whether Cc1ccc(O)c(C(CC(=O)N2CCCC2)c2ccccc2)c1 (stereo not drawn) shows cell count of 500 or more.
A. Not met

Q. Say whether `COc1cccc(-c2csc3nnc(SCC(=O)c4ccc(NC(C)=O)cc4)n23)c1` shows cell count of 500 or more.
A. Not met

Q. Say whether O=C(Nc1nc(-c2ccc(S(=O)(=O)N3CCCC3)cc2)cs1)C1COc2ccccc2O1 (stereo not drawn) shows cell count of 500 or more.
A. Met

Q. Say whether COc1cccc(-c2noc(C3CCCN(C(=O)Cc4ccccc4)C3)n2)c1 (stereo not drawn) shows cell count of 500 or more.
A. Not met
